- Tested on: Enterococcus faecium
- Protocol: Antibacterial activity against Enterococcus faecium ATCC 49452 at 0 % serum
- Format: functional
Value Type: MIC (µg/mL)
One number for each entry, in µg/mL.

• CCCCCCCCCC(=O)N[C@@H](Cc1c[nH]c2ccccc12)C(=O)N[C@H](CC(N)=O)C(=O)N[C@@H](CCO)C(=O)N[C@@H]1C(=O)NCC(=O)N[C@@H](CCCNCc2ccc(S(=O)(=O)N3CCN(c4ncccn4)CC3)cc2)C(=O)N[C@@H](CC(=O)O)C(=O)N[C@H](C)C(=O)N[C@@H](CC(=O)O)C(=O)NCC(=O)N[C@H](CO)C(=O)N[C@@H]([C@H](C)CC(=O)O)C(=O)N[C@@H](CC(=O)c2ccccc2N)C(=O)O[C@@H]1C = 3.13

Answer for every listed entry: what is its MIC? The entries follow.
1. CCCCCCCCCC(=O)N[C@@H](Cc1c[nH]c2ccccc12)C(=O)N[C@H](CC(N)=O)C(=O)N[C@@H](CCO)C(=O)N[C@@H]1C(=O)NCC(=O)N[C@@H](CCCNCc2ccc(C(=O)N3CCN(c4ccccc4)CC3)cc2)C(=O)N[C@@H](CC(=O)O)C(=O)N[C@H](C)C(=O)N[C@@H](CC(=O)O)C(=O)NCC(=O)N[C@H](CO)C(=O)N[C@@H]([C@H](C)CC(=O)O)C(=O)N[C@@H](CC(=O)c2ccccc2N)C(=O)O[C@@H]1C
2. CCCCCCCCCC(=O)N[C@@H](Cc1c[nH]c2ccccc12)C(=O)N[C@H](CC(N)=O)C(=O)N[C@@H](CCO)C(=O)N[C@@H]1C(=O)NCC(=O)N[C@@H](CCCNCc2ccc(C(=O)N3CCN(c4ccc(F)cc4)CC3)cc2)C(=O)N[C@@H](CC(=O)O)C(=O)N[C@H](C)C(=O)N[C@@H](CC(=O)O)C(=O)NCC(=O)N[C@H](CO)C(=O)N[C@@H]([C@H](C)CC(=O)O)C(=O)N[C@@H](CC(=O)c2ccccc2N)C(=O)O[C@@H]1C
3. CCCCCCCCCC(=O)N[C@@H](Cc1c[nH]c2ccccc12)C(=O)N[C@H](CC(N)=O)C(=O)N[C@@H](CCO)C(=O)N[C@@H]1C(=O)NCC(=O)N[C@@H](CCCNCc2ccc(/C=C/C(=O)N3CCN(c4ccc(Cl)c(Cl)c4)CC3)cc2)C(=O)N[C@@H](CC(=O)O)C(=O)N[C@H](C)C(=O)N[C@@H](CC(=O)O)C(=O)NCC(=O)N[C@H](CO)C(=O)N[C@@H]([C@H](C)CC(=O)O)C(=O)N[C@@H](CC(=O)c2ccccc2N)C(=O)O[C@@H]1C

Output:
6.25
6.25
1.56

Answer for every listed entry: what is its MIC? The entries follow.
1. CCCCCCCCCC(=O)N[C@@H](Cc1c[nH]c2ccccc12)C(=O)N[C@H](CC(N)=O)C(=O)N[C@@H](CCO)C(=O)N[C@@H]1C(=O)NCC(=O)N[C@@H](CCCNCc2ccc3ccccc3n2)C(=O)N[C@@H](CC(=O)O)C(=O)N[C@H](C)C(=O)N[C@@H](CC(=O)O)C(=O)NCC(=O)N[C@H](CO)C(=O)N[C@@H]([C@H](C)CC(=O)O)C(=O)N[C@@H](CC(=O)c2ccccc2N)C(=O)O[C@@H]1C
2. CCCCCCCCCC(=O)N[C@@H](Cc1c[nH]c2ccccc12)C(=O)N[C@H](CC(N)=O)C(=O)N[C@@H](CCO)C(=O)N[C@@H]1C(=O)NCC(=O)N[C@@H](CCCNCc2ccc(C(=O)N3CCN(Cc4ccccc4)CC3)cc2)C(=O)N[C@@H](CC(=O)O)C(=O)N[C@H](C)C(=O)N[C@@H](CC(=O)O)C(=O)NCC(=O)N[C@H](CO)C(=O)N[C@@H]([C@H](C)CC(=O)O)C(=O)N[C@@H](CC(=O)c2ccccc2N)C(=O)O[C@@H]1C
3. CCCCCCCCCC(=O)N[C@@H](Cc1c[nH]c2ccccc12)C(=O)N[C@H](CC(N)=O)C(=O)N[C@@H](CCO)C(=O)N[C@@H]1C(=O)NCC(=O)N[C@@H](CCCNCc2ccc(OCc3ccc(F)cc3)c([N+](=O)[O-])c2)C(=O)N[C@@H](CC(=O)O)C(=O)N[C@H](C)C(=O)N[C@@H](CC(=O)O)C(=O)NCC(=O)N[C@H](CO)C(=O)N[C@@H]([C@H](C)CC(=O)O)C(=O)N[C@@H](CC(=O)c2ccccc2N)C(=O)O[C@@H]1C
4. CCCCCCCCCC(=O)N[C@@H](Cc1c[nH]c2ccccc12)C(=O)N[C@H](CC(N)=O)C(=O)N[C@@H](CCO)C(=O)N[C@@H]1C(=O)NCC(=O)N[C@@H](CCCNCc2cc3ccccc3o2)C(=O)N[C@@H](CC(=O)O)C(=O)N[C@H](C)C(=O)N[C@@H](CC(=O)O)C(=O)NCC(=O)N[C@H](CO)C(=O)N[C@@H]([C@H](C)CC(=O)O)C(=O)N[C@@H](CC(=O)c2ccccc2N)C(=O)O[C@@H]1C

Output:
1. 6.25
2. 3.13
3. 1.56
4. 3.13

Source of measurements: ChEMBL document CHEMBL1136464
